# System: MDA-MB-231
# protocol summary: Cytotoxicity against human MDA-MB-231 cells after 72 hrs by MTS assay
# Type: functional, cell-based
# details: MDA-MB-231, 72 h
pIC50: −log10 of the molar value. Where a SMILES comes first, the peptide text is derived from it.
Consider the following compounds; for each one, report its pIC50.

Worked examples, 8 compounds total:
{"compound": "CC(C)C[C@@H]1NC(=O)CNC(=O)[C@H](Cc2ccccc2)NC(=O)[C@H](Cc2ccc(O)cc2)NC(=O)[C@@H]2CCCN2C(=O)[C@H](C)NC1=O (HELM PEPTIDE1{A.P.Y.F.G.L}$PEPTIDE1,PEPTIDE1,1:R1-6:R2$$$V2.0)", "pIC50": 4.99}
{"compound": "CC(C)C[C@@H]1NC(=O)CNC(=O)[C@H](Cc2ccccc2)NC(=O)[C@H](C)NC(=O)[C@@H]2CCCN2C(=O)CNC1=O (HELM PEPTIDE1{A.F.G.L.G.P}$PEPTIDE1,PEPTIDE1,1:R1-6:R2$$$V2.0)", "pIC50": "< 5.00"}
{"compound": "CC(C)C[C@@H]1NC(=O)[C@H](C)NC(=O)[C@H](Cc2ccccc2)NC(=O)[C@H](Cc2ccc(O)cc2)NC(=O)[C@@H]2CCCN2C(=O)CNC1=O (HELM PEPTIDE1{A.L.G.P.Y.F}$PEPTIDE1,PEPTIDE1,1:R1-6:R2$$$V2.0)", "pIC50": 5.11}
{"compound": "CC(C)C[C@@H]1NC(=O)CNC(=O)[C@H](Cc2ccccc2)NC(=O)[C@H](Cc2ccc(O)cc2)NC(=O)[C@H](C)NC(=O)CNC1=O (HELM PEPTIDE1{A.Y.F.G.L.G}$PEPTIDE1,PEPTIDE1,1:R1-6:R2$$$V2.0)", "pIC50": "< 5.00"}
{"compound": "COc1cccc2c1C(=O)c1c(O)c3c(c(O)c1C2=O)C[C@@](O)(C(=O)CO)C[C@@H]3O[C@H]1C[C@H](N)[C@H](O)[C@H](C)O1 [DOXORUBICIN]", "pIC50": 7.40}
{"compound": "C[C@@H]1NC(=O)CNC(=O)[C@H](Cc2ccccc2)NC(=O)[C@H](Cc2ccc(O)cc2)NC(=O)[C@@H]2CCCN2C(=O)CNC1=O (HELM PEPTIDE1{A.G.P.Y.F.G}$PEPTIDE1,PEPTIDE1,1:R1-6:R2$$$V2.0)", "pIC50": "< 5.00"}
{"compound": "CC(C)C[C@@H]1NC(=O)CNC(=O)[C@H](Cc2ccccc2)NC(=O)[C@H](Cc2ccc(O)cc2)NC(=O)[C@@H]2CCCN2C(=O)CNC1=O [Cherimolacyclopeptide E] (HELM PEPTIDE1{F.G.L.G.P.Y}$PEPTIDE1,PEPTIDE1,1:R1-6:R2$$$V2.0)", "pIC50": "< 5.00"}
{"compound": "CC(C)C[C@@H]1NC(=O)CNC(=O)[C@H](Cc2ccccc2)NC(=O)[C@H](Cc2ccc(O)cc2)NC(=O)CNC(=O)CNC1=O (HELM PEPTIDE1{F.G.L.G.G.Y}$PEPTIDE1,PEPTIDE1,1:R1-6:R2$$$V2.0)", "pIC50": "< 5.00"}

## Task For CC(C)C[C@@H]1NC(=O)CNC(=O)[C@H](C)NC(=O)[C@H](Cc2ccc(O)cc2)NC(=O)[C@@H]2CCCN2C(=O)CNC1=O (HELM PEPTIDE1{A.G.L.G.P.Y}$PEPTIDE1,PEPTIDE1,1:R1-6:R2$$$V2.0) , write its pIC50.
## Result < 5.00

Just for reference, ChEMBL document CHEMBL2163246 is where these values come from.
